test system: HIV-1; experiment: Anti-HIV evaluation in human PBM cells; assay type: cell-based; conditions: HIV-1
Below, each of the compounds is paired with its reported EC50 value.
Express your answer in µM, writing the number without its unit.

In the examples that follow, each entry is paired with its recorded EC50.
| COMPOUND | SYSTEM | EC50 / µM |
| --- | --- | --- |
| CN(O)C1C(CO)OC(n2cc(F)c(=O)[nH]c2=O)C1F (stereo not drawn) [Compound 61 (Series 2)] | HIV-1 | 52.3 |
| Cc1cn(C2CC(CO)C(CO)O2)c(=O)[nH]c1=O (stereo not drawn) [Compound 20 (Series 1)] | HIV-1 | 0.8 |
| Cc1cn(C2CC(CO)C(CO)O2)c(=O)[nH]c1=O (stereo not drawn) [Compound 4 (Series 1)] | HIV-1 | 87.7 |

// next entry
Requested read-out: EC50. Entry: Cc1cn(C2OC(CO)C(CO)C2F)c(=O)nc1N (stereo not drawn) [Compound 11 (Series 2)]
112
